# System: SF-539 CNS
# Assay details: NCI-60 one-dose screen, 48 h (100 = growth as untreated, 0 = no growth, -100 = all killed)
# Run parameters: 10 µM unless noted
This is part of a sample that, as a whole, favours compounds with a hit. Of some 83,000 tested, about 20% had one in any assay.
# growth values compiled below
Write down the numeric answer in % and omit the unit.

COc1ccc2c(c1)c(-c1nc(-c3cn(C)c4ncccc34)cs1)cn2CCCCN1CCCCC1	-80.2
CCOC(=O)[C@@H](C)C[C@H](Cc1ccccc1)NC(=O)c1csc([C@@H](C[C@H](C(C)C)N(C)C(=O)[C@H](CC)NC(=O)[C@H]2CCCCN2C)OC(C)=O)n1	-9.33
[Cl][Hg][n]1c(-c2ccco2)nc2ccccc21	99.3

Would you mind telling me what growth value was observed for O=C(Nc1ccc(O)cc1)C(Cl)(Cl)Cl ?
93.1

Follow-up item: Oc1c(O)c(Cl)c(Cl)c(Cl)c1Cl
20.9

Next record, please: Cn1cc(-c2csc(-c3cn(CCCCN4CCCCC4)c4ccccc34)n2)c2cccnc21
-73.2

Would you kindly repeat that for CN(C)CC(C(=O)Cc1ccccc1)c1ccccc1 (centres undefined) ?
5.03

Can you check CCN1C(=O)C(=C/C=C/c2ccccc2)C(=O)N(CC)C1=O next?
109

Now try Cc1ccc2c(C(C[N+](=O)[O-])c3cccs3)c(-c3ccccc3)[nH]c2c1 (centres undefined) .
6.62

Also, COC(=O)[C@@]1(C)CC[C@]2(C)CC[C@]3(C)C4=CC(=O)c5c(cc(O)c(O)c5C)[C@]4(C)CC[C@@]3(C)[C@@H]2C1 please.
78

Similarly, CNC12C3C4C1C1C2C3C41C(=O)N[C@H](C(=O)N(C)[C@H](C[C@@H](OC(C)=O)c1nc(C(=O)N[C@@H](Cc2ccccc2)C[C@H](C)C(=O)OC)cs1)C(C)C)C1CC1 (some centres undefined) ?
-1.2

Entry O=C(CCl)c1ccc([N+](=O)[O-])o1 please
2.78

Here is the next molecule: CC(=O)O[C@H](C[C@H](C(C)C)N(C)C(=O)[C@@H](NC(=O)[C@H]1CCCCN1C)C(C)C)c1cccc(C(=O)N[C@@H](Cc2ccccc2)C[C@H](C)C(=O)O)n1
-2.97

====

# Test system: EKVX NSCLC
# Assay details: NCI-60 one-dose screen, 48 h
# Run parameters: 10 µM unless noted
About 83,000 compounds went through this panel and 20% of them were active in at least one assay; those are over-represented in the sample as a whole. Calls of active or inactive are those of the source. The calls were made as follows: active = growth percent below 10; inactive = the rest.
Returns: one label drawn from active, inactive

Some solved entries appear below for comparison.
CNC(=O)Oc1ccc2c(c1)OCO2	inactive
COc1ccc(C(O)(C(=O)O)c2ccc(OC)cc2)cc1	inactive
COC(=O)[C@@H](C)C[C@H](Cc1ccccc1)NC(=O)c1csc([C@@H](C[C@H](C(C)C)N(C)C(=O)C2(NC(=O)[C@H]3CCCCN3C)CCC2)OC(C)=O)n1	inactive

Outcome logged for CCCCCCCC(=O)OCC(=O)[C@]1(O)Cc2c(O)c3c(c(O)c2[C@@H](OC2CC(N)C(O)C(C)O2)C1)C(=O)c1c(OC)cccc1C3=O (stereo not given in full) in this assay:
active

Try the compound CC1(C)[C@H](O)[C@H](F)C[C@@]2(C)Oc3ccc(C(=O)Nc4ccc5c(c4)NC(=O)C54CCN(CCCCC#N)CC4)cc3C[C@H]12
inactive

What do we get for CCCCCCCCCCCCCCCCCCOc1ccccc1COP(=O)(O)OOCC[N+](C)(C)C ?
inactive
